- tested.target: human α-thrombin (Homo sapiens, UniProt P00734)
pIC50: −log10 of the molar value.

- molecule: "N=C(N)NCCCCCC(=O)Oc1ccc(CCC(=O)O)cc1 [4-carboxyethylphenyl ε-guanidinocaproate, reference compound]"
  pIC50: 5.44
